The origin of these recorded values is ChEMBL document CHEMBL2218924.

Recorded residual activity by entry
Target: Rho-associated protein kinase 1 (Homo sapiens) (UniProt Q13464)
Sequence (Q13464 2-1354 limits assumed): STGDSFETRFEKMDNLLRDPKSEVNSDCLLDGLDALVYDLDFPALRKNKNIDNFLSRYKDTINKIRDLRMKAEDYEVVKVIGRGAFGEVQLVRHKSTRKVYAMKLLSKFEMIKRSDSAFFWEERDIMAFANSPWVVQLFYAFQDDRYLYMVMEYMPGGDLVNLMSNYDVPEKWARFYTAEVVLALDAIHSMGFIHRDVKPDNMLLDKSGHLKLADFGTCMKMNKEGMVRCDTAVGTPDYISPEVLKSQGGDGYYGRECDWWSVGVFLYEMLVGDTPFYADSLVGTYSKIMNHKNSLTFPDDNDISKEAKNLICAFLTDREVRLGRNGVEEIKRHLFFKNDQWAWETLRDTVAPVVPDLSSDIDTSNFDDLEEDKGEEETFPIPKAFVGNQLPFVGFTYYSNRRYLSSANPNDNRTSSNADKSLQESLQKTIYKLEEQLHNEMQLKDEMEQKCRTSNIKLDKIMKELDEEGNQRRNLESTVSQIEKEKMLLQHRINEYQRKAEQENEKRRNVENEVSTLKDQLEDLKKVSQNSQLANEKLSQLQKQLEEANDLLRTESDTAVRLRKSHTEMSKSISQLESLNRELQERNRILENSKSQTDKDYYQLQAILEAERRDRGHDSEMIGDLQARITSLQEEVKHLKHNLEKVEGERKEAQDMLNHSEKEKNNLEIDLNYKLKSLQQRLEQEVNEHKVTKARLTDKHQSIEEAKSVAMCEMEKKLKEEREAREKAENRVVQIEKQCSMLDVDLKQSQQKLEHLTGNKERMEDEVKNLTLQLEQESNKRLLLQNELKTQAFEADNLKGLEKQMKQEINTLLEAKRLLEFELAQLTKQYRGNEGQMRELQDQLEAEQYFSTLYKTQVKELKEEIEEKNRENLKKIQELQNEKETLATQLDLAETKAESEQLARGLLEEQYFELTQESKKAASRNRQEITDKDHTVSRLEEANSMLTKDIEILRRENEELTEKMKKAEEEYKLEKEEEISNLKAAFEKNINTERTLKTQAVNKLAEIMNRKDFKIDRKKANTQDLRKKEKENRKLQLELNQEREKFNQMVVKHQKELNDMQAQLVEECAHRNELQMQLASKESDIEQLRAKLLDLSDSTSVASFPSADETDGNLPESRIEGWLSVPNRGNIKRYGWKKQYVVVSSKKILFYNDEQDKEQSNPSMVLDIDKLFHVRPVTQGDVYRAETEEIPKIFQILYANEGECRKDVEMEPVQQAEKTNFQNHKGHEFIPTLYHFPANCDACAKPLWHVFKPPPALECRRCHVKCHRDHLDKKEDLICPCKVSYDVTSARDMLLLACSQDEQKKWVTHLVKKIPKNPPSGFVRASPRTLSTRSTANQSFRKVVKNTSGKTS
Conditions: at 1 µM
A number alone suffices; assume %.

Cc1nc2cc3nc(-c4cccs4)cnc3cc2n1C = 102
O=C(Nc1cccc(Nc2cc(Nc3cccc(C(F)(F)F)c3)ncn2)c1)C1CC1 = 101

[Q] Request body: readout residual activity, system Rho-associated protein kinase 1 (Homo sapiens) (UniProt Q13464), query "CCN(CC)CCCCN1c2ccccc2Oc2ccc(Cl)cc21" . Return the value.
[A] 113

[Q] Let us now turn to "O=C(Nc1cccc(Nc2nccc(Nc3cccc(C(F)(F)F)c3)n2)c1)C1CC1"
[A] 106

[Q] Let us now turn to "CCC(=O)Nc1ccc2ncnc(Nc3cccc(Br)c3)c2c1"
[A] 115

[Q] Let us now turn to "NC(=O)c1ccc2[nH]c(-c3ccc(Oc4ccc(Cl)cc4)cc3)nc2c1"
[A] 123

[Q] Let us now turn to "O=Nc1c(-c2c(O)[nH]c3ccccc23)[nH]c2ccccc12"
[A] 108
